Data provenance: patent US20030211537A1

tgt: T1, mouse delta opioid receptor (mORD1) (mouse), P32300
T1 chain: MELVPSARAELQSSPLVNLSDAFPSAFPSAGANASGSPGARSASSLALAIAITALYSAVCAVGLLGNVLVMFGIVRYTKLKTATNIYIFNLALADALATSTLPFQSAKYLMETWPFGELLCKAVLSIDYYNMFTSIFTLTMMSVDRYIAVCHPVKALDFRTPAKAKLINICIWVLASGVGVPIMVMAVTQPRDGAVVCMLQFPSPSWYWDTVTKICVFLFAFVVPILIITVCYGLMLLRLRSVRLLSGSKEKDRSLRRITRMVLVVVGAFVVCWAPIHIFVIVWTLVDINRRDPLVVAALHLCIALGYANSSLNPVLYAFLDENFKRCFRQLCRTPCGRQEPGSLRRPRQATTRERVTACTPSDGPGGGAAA
procedureText: competition vs [3H]naltrindole, CHO-DG44 membranes
propertyLabel: Ki (nM)
Give bare numbers, in nM.

Q: Using the record for YAGFL (modifications not checked) [DADL] , report its Ki.
Result: 0.74
